Measured on: T1, cynoSIRPα (NP_001271679), Extracellular Domain + His-Tag (cynomolgus monkey)
T1 construct: also called CySIRPα NP_001271679; not shown: His-Tag
T1 chain: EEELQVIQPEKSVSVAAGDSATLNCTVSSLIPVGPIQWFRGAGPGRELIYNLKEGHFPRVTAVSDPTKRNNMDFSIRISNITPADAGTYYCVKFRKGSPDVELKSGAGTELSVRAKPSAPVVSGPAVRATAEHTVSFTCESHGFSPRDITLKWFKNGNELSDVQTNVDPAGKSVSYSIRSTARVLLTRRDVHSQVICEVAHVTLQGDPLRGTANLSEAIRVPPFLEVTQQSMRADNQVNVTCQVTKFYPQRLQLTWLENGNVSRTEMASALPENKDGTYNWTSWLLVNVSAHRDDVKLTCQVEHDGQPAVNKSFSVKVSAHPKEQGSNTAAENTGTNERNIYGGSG
Assay overview: SPR, antibody captured on Protein A/G, ECD-His analyte, 1:1 fit
Documented koff across a set of binders
Write the number in s⁻¹ without appending the unit.

[
  {
    "Binder": "Antibody E8 (antibody, human IgG1, kappa, L234A L235A, V domains shown) VH: QVQLQESGPGLVRPSETLSLTCTVSGGSIRNYYWSWIRQPPGKGLEWMGFIYDNGRTFYNPSLKSRVTISLDMSMNQFSLKMTSVTAADTAVYYCARVRAYSGIGLDGTDVWGQGTTVTVSS VL: DIVMTQSPLSLPVTPGEPASISCKSSQSLLYSNGYAYLDWYLQRPGQSPQLLIYQGSNRASGVPDRFSGSGSGTDFTLKISRVEAEDVGVFYCMQALQTPLTFGGGTKVEIKR",
    "Measure unit": "s⁻¹",
    "Readout number": 0.0036
  },
  {
    "Binder": "Antibody E18 (antibody, human IgG1, kappa, L234A L235A, V domains shown) VH: QVQLQESGPGLVRPSETLSLTCTVSGGSIRNYYWSWIRQPPGKGLEWIGFIYYTGRTFYNPSLKSRVTISLDMSKNQFSLKMTSVTAADTAVYYCARVRAYSGIGLDGTDVWGQGTTVTVSS VL: DIVMTQSPLSLPVTPGEPASISCKSSQSLLYSNGYAYLDWYLQRPGQSPQLLIYLGSNRASGVPDRFSGSGSGTDFTLKISRVEAEDVGVYYCMQALQTPLTFGGGTKVEIKR",
    "Measure unit": "s⁻¹",
    "Readout number": 0.0118
  },
  {
    "Binder": "Antibody E4 (antibody, human IgG1, kappa, L234A L235A, V domains shown) VH: QVQLQESGPGLVRPSETLSLTCTVSGGSIRNYYWSWIRQPPGKGLEWIGFIYYNGRTFYNPSLKSRVTISLDMSKNQFSLKMTSVTAADTAVYYCARVRAYSGIGLDGTDVWGQGTTVTVSS VL: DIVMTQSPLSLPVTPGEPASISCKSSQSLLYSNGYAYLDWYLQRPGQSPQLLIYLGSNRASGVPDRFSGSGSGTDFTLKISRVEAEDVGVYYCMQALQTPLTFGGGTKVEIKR",
    "Measure unit": "s⁻¹",
    "Readout number": 0.00468
  },
  {
    "Binder": "Antibody E2 (antibody, human IgG1, kappa, L234A L235A, V domains shown) VH: QVQLQESGPGLVRPSETLSLTCTVSGGSIRNYYWSWIRQPPGKGLEWIGFIYYNGRTFYNPSLKSRVTISLDMSINQFSLKMTSVTAADTAVYYCARVRAYSGIGLDGTDVWGQGTTVTVSS VL: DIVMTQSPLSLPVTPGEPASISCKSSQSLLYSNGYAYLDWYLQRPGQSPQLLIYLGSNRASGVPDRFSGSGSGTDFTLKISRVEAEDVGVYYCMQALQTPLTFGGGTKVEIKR",
    "Measure unit": "s⁻¹",
    "Readout number": 0.00526
  }
]

For the next question, use this binder.
binder Antibody E20 (antibody, human IgG1, kappa, L234A L235A, V domains shown) VH: QVQLQESGPGLVRPSETLSLTCTVSGGSIRNYYWSWIRQPPGKGLEWIGFIYYTGRTFYNPSLKSRVTISLDMSINQFSLKMTSVTAADTAVYYCARVRAYSGIGLDGTDVWGQGTTVTVSS VL: DIVMTQSPLSLPVTPGEPASISCKSSQSLLYSNAYNYLDWYLQRPGQSPQLLIYLGSNRASGVPDRFSGSGSGTDFTLKISRVEAEDVGVYYCMQALQTPLTFGGGTKVEIKR , koff observed: 0.0278

Data provenance: patent US20230012273A1
